Taken from PubChem BioAssay (NCI).

# Tested on: HCT-15 colon
# measurement-description: NCI tumour cell line growth inhibition, 48 h; in the data active = GI50 below about 0.43 µM; inactive = the rest
Hello, when you answer, please use one of the following outcomes: yes (1) for active, no (0) for inactive

{"compound": "CN1C(=O)N(C)C2C1NC(=S)N2/N=C/C=C/c1ccccc1[N+](=O)[O-] (stereo unspecified)", "class-assignment": "no (0)"}
{"compound": "CC1Cc2c(Cl)ncnc2N(C)c2ccccc21 (stereo unspecified)", "class-assignment": "no (0)"}

Hi, do you know how CCOC(=O)C1=C(Nc2ccc(OC)cc2)C(N)=NC1=N came out in this test?
no (0)

Which outcome did this test record for the compound COC(=O)[C@]1(C)CCC[C@@]2(C)C3=C(CC[C@H]12)C[C@@H](CC(OC(C)=O)OC(C)=O)[C@@H](C)C3 ?
no (0)

Which result was noted for this compound in the test: COC(=O)Nc1nc2ccc(C(=O)c3cccc(I)c3)cc2[nH]1
yes (1)

Assay result, entry Cc1cc(I)cc(CN(C)CCCN2CCC(C)CC2)c1O — outcome?
no (0)

====

# Test system: SK-MEL-5 melanoma
# measurement-description: NCI tumour cell line growth inhibition, 48 h; in the data active = GI50 below about 0.43 µM; inactive = the rest
Thanks in advance; please answer with one of these: 1 for active, -1 for inactive

Worked cases, answers included:
{"entry-smiles": "C=CCc1c(O)c(C(=O)/C=C/c2ccc(Cl)cc2)c(OC)c2ccoc12", "assayed-target": "SK-MEL-5 melanoma", "class-assignment": -1}
{"entry-smiles": "COC(=O)Nc1nc2ccc(C(=O)c3cccc(I)c3)cc2[nH]1", "assayed-target": "SK-MEL-5 melanoma", "class-assignment": 1}

Recorded call for CCOC(=O)N1CCC(N=C2CSc3nnc(-c4cc(C(F)(F)F)cc(C(F)(F)F)c4)n3N2)CC1 ?
-1

====

# Test system: SK-MEL-2 melanoma
# measurement-description: NCI tumour cell line growth inhibition, 48 h
quantity-kind: log10 TGI (log10 of the value in µM)
Transform log10 | Measure TGI | Unit µM

{"molecule": "C[Si](C)(C)OC1(C#N)c2ccccc2CCCC12CCCC2 (stereo not drawn)", "assayed-target": "SK-MEL-2 melanoma", "log10 TGI": 1.66}

Now, please, on to the next molecule.
Supply reported log10 TGI belonging to this molecule: COc1cc2c(cc1OCC(=O)Nc1ccc(Cl)cc1C(=O)c1ccccc1Cl)N=CC1CCCN1C2=O (stereo not drawn)
1.29

====

Here the recorded TGI is given for each entry.
# Tested on: RPMI-8226 leukemia
# measurement-description: NCI tumour cell line growth inhibition, 48 h

Example entries and their recorded answers appear below.
{"compound": "Nc1nc2cc(Cl)ccc2n1N", "TGI": "> 100 µM"}
{"compound": "N=c1ncn(C/C=C/c2ccccc2)c2nc[nH]c12", "TGI": "> 100 µM"}
{"compound": "CCC(O)CCCCCCCCCCCCCCC(=O)O (stereo not given)", "TGI": "> 100 µM"}
{"compound": "O=C1Sc2ccccc2C(=O)N2CCSC12 (stereo not given)", "TGI": "> 100 µM"}
{"compound": "Oc1c(C(c2ccc(F)cc2)N2CCCCC2)ccc2cncnc12 (stereo not given)", "TGI": "> 100 µM"}

Please turn your attention to the following entry.
Annotate the compound COc1cc2[nH]c3c(c2cc1OC)CCN[C@@]31CC[C@@]2(CC3c4c(cc(OC)c(O)c42)CCN3C)C[C@@H]1OC (stereo not given in full) with its measured TGI.
> 56.2 µM
